What Kd was measured for each of the following?
- target-system: T1, recombinant human BCMA, in house material (human, UniProt Q02223 4-53, limits assumed)
- T1 construct: also called Human in house BCMA; In house human BCMA
- T1 sequence (Q02223 4-53 limits assumed): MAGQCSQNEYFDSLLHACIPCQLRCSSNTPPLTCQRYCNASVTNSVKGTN
- protocol-notes: ProteOn SPR run 1, antibody captured on Protein A, 25C
Write it as a number; the unit pM goes unstated.

Exercise: Provide Kd value for the following binder: CA8 humanised J5M2 (antibody, human IgG1, kappa, V domains shown, Humanised CA8, heavy chain J5 with light chain M2, human IgG1 kappa; also called CA8 J5M2) VH: QVQLVQSGAEVKKPGSSVKVSCKGSGYTFTNYWMHWVRQAPGQGLEWMGATYRGHSDTYYNQKFKGRVTITADTSTSTAYMELSSLRSEDTAVYYCTRGAIYDGYDVLDNWGQGTLVTVSS VL: DIQLTQSPSSLSASVGDRVTITCSASQDISNYLNWYQQKPGKAPELVIYYTSNLHSGVPSRFSGSGSGTDYTLTISSLQPEDFATYYCQQYRKLPWTFGQGTKLEIKR
Key: 120

Exercise: Provide Kd value for the following binder: CA8 humanised J0M2 (antibody, human IgG1, kappa, V domains shown, Humanised CA8, heavy chain J0 with light chain M2, human IgG1 kappa; also called CA8 J0M2) VH: QVQLVQSGAEVKKPGSSVKVSCKASGGTFSNYWMHWVRQAPGQGLEWMGATYRGHSDTYYNQKFKGRVTITADKSTSTAYMELSSLRSEDTAVYYCARGAIYNGYDVLDNWGQGTLVTVSS VL: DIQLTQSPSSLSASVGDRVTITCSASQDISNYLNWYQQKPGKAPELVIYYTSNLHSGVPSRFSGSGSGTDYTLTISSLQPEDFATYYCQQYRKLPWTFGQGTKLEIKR
Key: 310

Exercise: Provide Kd value for the following binder: CA8 humanised J2M0 (antibody, human IgG1, kappa, V domains shown, Humanised CA8, heavy chain J2 with light chain M0, human IgG1 kappa; also called CA8 J2M0) VH: QVQLVQSGAEVKKPGSSVKVSCKASGYTFTNYWMHWVRQAPGQGLEWMGATYRGHSDTYYNQKFKGRVTITADKSTSTAYMELSSLRSEDTAVYYCTRGAIYNGYDVLDNWGQGTLVTVSS VL: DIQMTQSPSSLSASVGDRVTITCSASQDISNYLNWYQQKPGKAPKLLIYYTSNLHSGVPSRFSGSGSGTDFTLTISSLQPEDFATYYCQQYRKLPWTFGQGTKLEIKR
Key: 1940
